Target: GLP-1R (Homo sapiens)
Test: EC20 GLP-1(9-36) PAM cAMP assay: dose response of compound in the presence of fixed concentration of GLP-1(9-36)
Settings: GLP-1R CRE-bla CHO-K1 cells, compound dose response in presence of fixed concentration of GLP-1(9-36)
pEC50: −log10 of the molar value. Counter-ions that a name gives are not always drawn.
metric name: pEC50

{"molecule": "CC(C)(C)c1ccc(-c2cnc(-c3ccc(C[C@H](NC(=O)c4ccc(C(C)(C)C)s4)C(=O)O)cc3)cn2)cc1", "pEC50": "5.60 to 6.10"}
{"molecule": "CCCCCCCOc1ccc(-c2cnc(-c3ccc(C[C@H](NC(=O)c4ccc(C(C)(C)C)s4)C(=O)N[C@H](CCC(=O)O)C(=O)O)cc3)nc2)cc1", "pEC50": "5.60 to 6.10"}
{"molecule": "Cc1ccc(-c2ccc(-c3cnc(-c4ccc(C[C@H](NC(=O)c5ccc(C(C)(C)C)cc5)C(=O)O)cc4)nc3)cc2)cc1", "pEC50": "5.60 to 6.10"}
{"molecule": "CCCCCCCOc1ccc(-c2cnc(-c3ccc(C[C@H](NC(=O)c4cc5ccccc5s4)C(=O)O)cc3)nc2)cc1", "pEC50": "5.60 to 6.10"}
{"molecule": "CCCCCCCOc1ccc(-c2cnc(-c3ccc(C[C@H](NC(=O)c4ccc(C(C)(C)C)cc4)C(=O)N(C)CC(=O)O)cc3)nc2)cc1", "pEC50": "5.60 to 6.10"}

# pEC50 of `COc1ccc(-c2nc(-c3ccc(C[C@H](NC(=O)c4ccc(C(C)(C)C)cc4)C(=O)O)cc3)no2)cc1OC` = 5.30 to 5.60

# pEC50 of `CC(C)(C)c1ccc(C(=O)N[C@@H](Cc2ccc(-c3noc(-c4ccc(-c5cccc(Cl)c5)cc4)n3)cc2)C(=O)O)cc1` = 5.30 to 5.60

# pEC50 of `CCCCCCCOc1ccc(-c2cnc(-c3ccc(C[C@H](NC(=O)c4ccc(C#N)cc4)C(=O)O)cc3)nc2)cc1` = 5.60 to 6.10

# pEC50 of `CCCCCCCOc1ccc(-c2cnc(-c3ccc(C[C@H](NC(=O)c4ccc(C(C)(C)C)cc4OC)C(=O)O)cc3)nc2)cc1` = 5.60 to 6.10

# pEC50 of CC(C)(C)c1ccc(-c2cnc(-c3ccc(C[C@H](NC(=O)c4ccc(C(C)(C)C)s4)C(=O)NC(CN)C(=O)O)cc3)nc2)cc1 (stereo partly shown) = 5.30 to 5.60

# pEC50 of CCCCCCCOc1ccc(-c2c[nH]c(-c3ccc(C[C@H](NC(=O)c4ccc(C(C)(C)C)cc4)C(=O)O)cc3)n2)cc1 [Compound 286, hydrochloride] = 5.30 to 5.60

----------
Target: GLP-1R (Homo sapiens, UniProt P43220)
Construct: host or cells: CRE-bla CHO-K1
Sequence (P43220 24-463): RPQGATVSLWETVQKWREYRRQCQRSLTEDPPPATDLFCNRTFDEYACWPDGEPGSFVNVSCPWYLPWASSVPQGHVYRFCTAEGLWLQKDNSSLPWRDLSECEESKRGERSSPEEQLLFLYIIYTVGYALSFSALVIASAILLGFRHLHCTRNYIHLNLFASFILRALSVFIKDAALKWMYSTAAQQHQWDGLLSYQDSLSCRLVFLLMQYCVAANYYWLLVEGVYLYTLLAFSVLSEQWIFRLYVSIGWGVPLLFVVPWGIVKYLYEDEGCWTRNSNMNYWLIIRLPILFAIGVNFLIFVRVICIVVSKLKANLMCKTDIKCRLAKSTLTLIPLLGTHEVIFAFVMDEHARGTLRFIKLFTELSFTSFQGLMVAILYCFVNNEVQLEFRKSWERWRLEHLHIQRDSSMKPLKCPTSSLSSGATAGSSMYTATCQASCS
Sequence (P01275 100-127 partner limits assumed): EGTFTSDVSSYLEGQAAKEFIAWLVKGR
Experiment: EC20 GLP-1(9-36) PAM cAMP assay: dose response of compound in the presence of fixed concentration of GLP-1(9-36)
Type: cell-based
Details: GLP-1R CRE-bla CHO-K1 cells, compound dose response in presence of fixed concentration of GLP-1(9-36)
metric name: EC50

{"molecule": "CCCCCCCOc1ccc(-c2cnc(-c3ccc(C[C@H](NC(=O)c4ccc(C(C)(C)C)s4)C(=O)NC(CC(=O)O)c4ccc(O)cc4)cc3)nc2)cc1 (some centres unmarked)", "system tested": "GLP-1R (Homo sapiens, UniProt P43220)", "EC50": "< 800 nM"}
{"molecule": "CCCCCCCOc1ccc(N2CCC(Nc3ccc(C[C@H](NC(=O)c4ccc(C(C)(C)C)cc4)C(=O)O)cc3)CC2)cc1", "system tested": "GLP-1R (Homo sapiens, UniProt P43220)", "EC50": "800 to 2500 nM"}
{"molecule": "CCCCCCCOc1ccc(-c2cnc(-c3ccc(C[C@H](NC(=O)c4ccc(C)c(C)c4)C(=O)O)cc3)nc2)cc1", "system tested": "GLP-1R (Homo sapiens, UniProt P43220)", "EC50": "< 800 nM"}
{"molecule": "CC(=O)c1ccc(C(=O)N[C@@H](Cc2ccc(-c3ncc(-c4ccc(C(C)(C)C)cc4)cn3)cc2)C(=O)O)cc1", "system tested": "GLP-1R (Homo sapiens, UniProt P43220)", "EC50": "5000 to 10000 nM"}

GLP-1R (Homo sapiens, UniProt P43220) data for `CCCCCCCOc1ccc(-c2cnc(-c3ccc(C[C@H](NC(=O)c4ccc(C(C)(C)C)s4)C(=O)NCC4(C(=O)O)CC4)cc3)nc2)cc1` ; its EC50: 800 to 2500 nM

GLP-1R (Homo sapiens, UniProt P43220) data for `Cc1ccc(-c2ccc(-n3cc(-c4ccc(C[C@H](NC(=O)c5ccc(C(C)(C)C)cc5)C(=O)O)cc4)cn3)cc2)cc1` ; its EC50: 2500 to 5000 nM

GLP-1R (Homo sapiens, UniProt P43220) data for `CCCCCCCOc1ccc(-c2cnc(-c3ccc(C[C@H](NC(=O)c4ccc(OC(C)(C)C)cc4)C(=O)O)cc3)nc2)cc1` ; its EC50: 800 to 2500 nM

GLP-1R (Homo sapiens, UniProt P43220) data for `CCCCCCCOc1ccc(-c2cnc(-c3ccc(C[C@H](NC(=O)c4ccc(C(C)C)cc4)C(=O)N[C@H](CCCCN)C(=O)O)cc3)nc2)cc1` ; its EC50: 800 to 2500 nM

----------
Target: GLP-1R (Homo sapiens)
Experiment: EC20 GLP-1(9-36) PAM cAMP assay: dose response of compound in the presence of fixed concentration of GLP-1(9-36)
Details: GLP-1R CRE-bla CHO-K1 cells, compound dose response in presence of fixed concentration of GLP-1(9-36)
pEC50: −log10 of the molar value.
metric name: pEC50

{"compound": "CC(C)(C)c1ccc(C(=O)N[C@@H](Cc2ccc(-c3noc(-c4ccc(-c5ccccc5)cc4)n3)cc2)C(=O)O)cc1", "reported value": "5.00 to 5.30"}
{"compound": "CC(C)(C)c1ccc(C(=O)N[C@@H](Cc2ccc(-c3noc(-c4ccc(N5CCCCC5)cc4)n3)cc2)C(=O)O)cc1", "reported value": "5.30 to 5.60"}

# pEC50 of `COc1ccc(-c2cnc(-c3ccc(C[C@H](NC(=O)c4ccc(C(C)(C)C)cc4)C(=O)O)cc3)nc2)cc1` = 5.00 to 5.30

# pEC50 of CCCCCCCOc1ccc(-c2cnc(-c3ccc(C[C@H](NC(=O)c4ccc(C(C)(C)C)s4)C(=O)N4CCCC(C(=O)O)C4)cc3)nc2)cc1 (stereo partly shown) = > 6.10

# pEC50 of `CCCCCCCOc1ccc(-c2cnc(-c3ccc(C[C@H](NC(=O)c4ccc(C(C)(C)C)s4)C(=O)N[C@@H](C)C(=O)O)cc3)nc2)cc1` = > 6.10

# pEC50 of `CCCCCCCOc1ccc(-c2nc(-c3ccc(C[C@H](NC(=O)c4ccc(C(C)(C)C)cc4)C(=O)NC(C)(C)C(=O)O)cc3)no2)cc1` = 5.00 to 5.30

# pEC50 of `CSCC[C@@H](NC(=O)[C@H](Cc1ccc(-c2ncc(-c3ccc(C(C)(C)C)cc3)cn2)cc1)NC(=O)c1ccc(C(C)(C)C)s1)C(=O)O` = > 6.10

# pEC50 of `CCCCCOc1ccc(-c2cnc(-c3ccc(C[C@H](NC(=O)c4ccc(C(C)(C)C)s4)C(=O)O)cc3)nc2)cc1` = 5.60 to 6.10

# pEC50 of `CCCCCCCOc1ccc(-c2cnc(-c3ccc(C[C@H](NC(=O)c4ccc(C(C)(C)C)cc4)C(=O)O)cc3)cc2C)cc1` = 5.60 to 6.10

# pEC50 of `CCCCCCCOc1ccc(-c2cnc(-c3ccc(C[C@H](NC(=O)c4cnn(C(C)(C)C)c4)C(=O)NCC(=O)O)cc3)nc2)cc1` = > 6.10

# pEC50 of `CSCC[C@H](NC(=O)[C@H](Cc1ccc(-c2ncc(-c3ccc(C(C)(C)C)cc3)cn2)cc1)NC(=O)c1ccc(C(C)(C)C)s1)C(=O)O` = 5.60 to 6.10

# pEC50 of `CCCCCCCOc1ccc(-c2cnc(-c3ccc(C[C@H](NC(=O)c4ccc(C(C)C)cc4)C(=O)N[C@@H](CC(C)C)C(=O)O)cc3)nc2)cc1` = 5.60 to 6.10

# pEC50 of `CCCCCCCOc1ccc(-c2cnc(-c3ccc(C[C@H](NC(=O)c4cnn(C(C)(C)C)c4)C(=O)O)cc3)nc2)cc1` = > 6.10

----------
Entries annotated with measured pEC50
Target: GLP-1R (Homo sapiens)
Assay: EC20 GLP-1(9-36) PAM cAMP assay: dose response of compound in the presence of fixed concentration of GLP-1(9-36)
Conditions: GLP-1R CRE-bla CHO-K1 cells, compound dose response in presence of fixed concentration of GLP-1(9-36)
pEC50: −log10 of the molar value.

Reference set, count: 2
{"structure smiles string": "CN1CCCc2c(-c3nc(-c4ccc(C[C@H](NC(=O)c5ccc(C(C)(C)C)cc5)C(=O)O)cc4)no3)cccc21", "metric name": "pEC50", "reported value": "5.60 to 6.10"}
{"structure smiles string": "CC(C)(C)c1ccc(C(=O)N[C@@H](Cc2ccc(-c3ncc(-c4ccc5ccccc5c4)cn3)cc2)C(=O)O)s1", "metric name": "pEC50", "reported value": "5.60 to 6.10"}

Alright, here's another compound for you.
# pEC50 of `COc1ccc(-c2ccc(-c3nc(-c4ccc(C[C@H](NC(=O)c5ccc(C(C)(C)C)cc5)C(=O)O)cc4)no3)cc2)cc1OC` = 5.60 to 6.10
